For each record, write down the corresponding viability.
Test: reducers of endogenous Her2 protein level, primary screen, SKBR3 breast tumor cells, AlphaScreen, ATP viability (AID 461);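 further: percent of carrier control wells set as 100% viability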
Conditions: 18-24 h, measured here: SKBR3 viability, ATP luminescence, at 10 µM
Write it as a number; the unit % goes unstated.

[in] Quick one: give measured viability for CC(C)(S)[C@@H](N)C(=O)O
[out] 102

[in] Quick one: give measured viability for CC1CN(c2nc(-c3ccccc3)nc3ccccc23)CC(C)O1 (stereo not drawn)
[out] 91

[in] Quick one: give measured viability for Cn1c(SCC(=O)N2CCOCC2)nnc1-c1cnccn1
[out] 109

[in] Quick one: give measured viability for C[C@@H]1C[C@H]2[C@@H]3C[C@H](F)C4=CC(=O)C=C[C@]4(C)[C@@]3(F)[C@@H](O)C[C@]2(C)[C@@]1(O)C(=O)CO
[out] 74

[in] Quick one: give measured viability for Cc1ccc(S(=O)(=O)N(CC(=O)N2CCOCC2)CC(=O)N2CCOCC2)cc1
[out] 104

[in] Quick one: give measured viability for CCN(Cc1nc2cc(OC)c(OC)cc2c(=O)[nH]1)C(=O)c1ccc(S(=O)(=O)N(C)C)cc1
[out] 113

[in] Quick one: give measured viability for CCOc1nc2ccccc2nc1NS(=O)(=O)c1ccccc1
[out] 83

[in] Quick one: give measured viability for O=C(Cn1nnc(-c2cccs2)n1)OC1CCCCC1
[out] 94.5

[in] Quick one: give measured viability for O=C(Cn1ccc2ccccc2c1=O)NCCC(=O)N1CCN(C(=O)c2ccco2)CC1
[out] 89.5

[in] Quick one: give measured viability for CCOC(=O)c1[nH]c(C)c(C(=O)N2CCN(C(=O)c3ccco3)CC2)c1C
[out] 88.5

[in] Quick one: give measured viability for CC1(C)Cc2noc(N)c2C(C)(C)N1OC(=O)c1ccccc1
[out] 107

[in] Quick one: give measured viability for O=C(COC(=O)c1cc(-c2ccco2)nc2ccccc12)NCc1ccc2c(c1)OCO2
[out] 97

[in] Quick one: give measured viability for Cc1cn([C@H]2C=C[C@@H](CO)O2)c(=O)[nH]c1=O
[out] 94

[in] Quick one: give measured viability for COc1cc2c(cc1OC)-c1cc(Nc3ccc4c(c3)OCCO4)nc(=O)n1CC2
[out] 91.5

[in] Quick one: give measured viability for COc1ccc(N2CC(C(=O)Nc3ccc(F)cc3F)CC2=O)cc1 (stereo not drawn)
[out] 102

[in] Quick one: give measured viability for Cc1cc(NCCN(C)C)n2nc(-c3cccs3)cc2n1
[out] 90

[in] Quick one: give measured viability for CCc1ccccc1NC(=O)CSc1ncn[nH]1
[out] 101

[in] Quick one: give measured viability for Cc1ccc(C)c2[nH]c(=O)c(CN(CCN3CCCC3)C(=O)Nc3cccc(Cl)c3)cc12
[out] 87

[in] Quick one: give measured viability for Nc1ccc(C(=O)OCCCc2nc3ccccc3[nH]2)cc1
[out] 92

[in] Quick one: give measured viability for COc1cc(C2c3c(oc4c(C)cc(C)cc4c3=O)C(=O)N2Cc2cccnc2)cc(OC)c1OC (stereo not drawn)
[out] 110

[in] Quick one: give measured viability for CCc1nc2sc3c(c2c(=O)o1)CCCC3
[out] 102

[in] Quick one: give measured viability for Cc1noc(NS(=O)(=O)c2ccc(N3C(=O)c4ccccc4C3=O)cc2)c1C
[out] 116

[in] Quick one: give measured viability for Cc1cc(C(F)F)n2ncc(C(=O)NC3CCCCCC3)c2n1
[out] 89.5

[in] Quick one: give measured viability for Cc1ccc(Cl)cc1NC(=O)CSc1nnc(C)n1-c1ccccc1
[out] 90

[in] Quick one: give measured viability for CCC(NC(C)C)C(O)c1ccc(O)c2[nH]c(=O)ccc12 (stereo not drawn)
[out] 108

[in] Quick one: give measured viability for CC(NO)C(C)(C)NO (stereo not drawn)
[out] 92

[in] Quick one: give measured viability for O=C1C2CC=CCC2C(=O)N1c1ccc(Cc2ccncc2)cc1 (stereo not drawn)
[out] 88

[in] Quick one: give measured viability for CCOC(=O)c1c(NC(=O)CSc2nnc(-c3cccnc3)o2)sc(C)c1C
[out] 120

Taken from PubChem BioAssay.
